For each record, write down the corresponding Residual rate.
experiment_description: Evaluation of conversion rate to active form in buffer solution (Experimental Example 1)
Assay type: physicochemical
assay_conditions: pH5.0, 1 hr
The response must be a number in % with no trailing unit.

Query: # return recorded Residual rate for input CN1CC[C@H](c2c(O)cc(O)c3c(=O)cc(-c4ccccc4Cl)oc23)[C@H](OC(=O)CN)C1 [Comparative Example 8, reference compound]
Response: 80.4

Query: # return recorded Residual rate for input CCOC(=O)O[C@@H]1CN(C)CC[C@@H]1c1c(O)cc(O)c2c(=O)cc(-c3ccccc3Cl)oc12 [Comparative Example 3, reference compound]
Response: 90.7

Query: # return recorded Residual rate for input CN1CC[C@H](c2c(O)cc(O)c3c(=O)cc(-c4ccccc4Cl)oc23)[C@H](OC(=O)[C@@H](N)CO)C1 [Comparative Example 9, reference compound]
Response: 82.6

Query: # return recorded Residual rate for input CC(C)[C@H](N)C(=O)O[C@@H]1CN(C)CC[C@@H]1c1c(O)cc(O)c2c(=O)cc(-c3ccccc3Cl)oc12 [Comparative Example 10, reference compound]
Response: 92.7

---

experiment_description: Liposome encapsulation test, remote loading method (Experimental Example 4);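 for Encapsulation efficiency: encapsulated compound as percent of compound amount introduced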
Type: physicochemical
assay_conditions: Compound concentration when encapsulated 10 mg/mL
readout_label: Encapsulation efficiency

Query: # return recorded Encapsulation efficiency for input CN1CC[C@H](c2c(OC(=O)N(CCC(F)(F)F)CC3CCCCN3)cc(O)c3c(=O)cc(-c4ccccc4Cl)oc23)[C@H](O)C1 (stereo partly drawn)
Response: 34.6%

Query: # return recorded Encapsulation efficiency for input CC(C)N(CC1CCCCN1)C(=O)Oc1cc(O)c2c(=O)cc(-c3ccccc3Cl)oc2c1[C@H]1CCN(C)C[C@H]1O (stereo partly drawn)
Response: 23.0%

Query: # return recorded Encapsulation efficiency for input CN1CC[C@H](c2c(OC(=O)N(Cc3ccccc3)CC3CCCCN3)cc(O)c3c(=O)cc(-c4ccccc4Cl)oc23)[C@H](O)C1 (stereo partly drawn)
Response: 22.2%

---

experiment_description: Evaluation of conversion rate to active form in buffer solution (Experimental Example 1)
Assay type: physicochemical
assay_conditions: pH7.4, 2 hr
readout_label: Production rate of Alvocidib (%)
The response must be a number in % with no trailing unit.

Query: # return recorded Production rate of Alvocidib for input CN1CC[C@H](c2c(O)cc(O)c3c(=O)cc(-c4ccccc4Cl)oc23)[C@H](OC(=O)CN)C1 [Comparative Example 8, reference compound]
Response: 67.0

Query: # return recorded Production rate of Alvocidib for input CCCCCCC(=O)O[C@@H]1CN(C)CC[C@@H]1c1c(O)cc(O)c2c(=O)cc(-c3ccccc3Cl)oc12 [Comparative Example 11, reference compound]
Response: 1.5

Query: # return recorded Production rate of Alvocidib for input C[C@H](N)C(=O)O[C@@H]1CN(C)CC[C@@H]1c1c(O)cc(O)c2c(=O)cc(-c3ccccc3Cl)oc12 [Comparative Example 7, reference compound]
Response: 84.7

Query: # return recorded Production rate of Alvocidib for input CN1CC[C@H](c2c(O)cc(O)c3c(=O)cc(-c4ccccc4Cl)oc23)[C@H](OC(=O)c2ccccc2F)C1 [Comparative Example 12]
Response: 1.8

Query: # return recorded Production rate of Alvocidib for input CC(C)[C@H](N)C(=O)O[C@@H]1CN(C)CC[C@@H]1c1c(O)cc(O)c2c(=O)cc(-c3ccccc3Cl)oc12 [Comparative Example 10, reference compound]
Response: 13.3

Query: # return recorded Production rate of Alvocidib for input CNC(=O)O[C@@H]1CN(C)CC[C@@H]1c1c(O)cc(O)c2c(=O)cc(-c3ccccc3Cl)oc12 [Comparative Example 5, reference compound]
Response: 0.0

---

experiment_description: Evaluation of conversion rate to active form in buffer solution (Experimental Example 1)
Assay type: physicochemical
assay_conditions: pH7.4, 2 hr, 37° C., 25 umol/L in buffer solution
Structures can show the parent of a compound that is named as a salt.
Use YES when the recorded Residual rate is no lower than 6%; use NO when it is lower.

Query: Evaluate CCCN(CC1CCCCN1)C(=O)Oc1cc(O)c2c(=O)cc(-c3ccccc3Cl)oc2c1[C@H]1CCN(C)C[C@H]1O (stereo partly shown) [Example 9] : Residual rate at minimum 6%?
Response: NO

Query: Evaluate CCN(CC1CCCCN1)C(=O)Oc1cc(O)c2c(=O)cc(-c3ccccc3Cl)oc2c1[C@H]1CCN(C)C[C@H]1O (stereo partly shown) [Example 7, dihydrochloride] : Residual rate at minimum 6%?
Response: YES

Query: Evaluate CCN(CCC1CCCCN1)C(=O)Oc1cc(O)c2c(=O)cc(-c3ccccc3Cl)oc2c1[C@H]1CCN(C)C[C@H]1O (stereo partly shown) [Example 16] : Residual rate at minimum 6%?
Response: NO

Query: Evaluate CN1CC[C@H](c2c(OC(=O)N(CCCC(F)(F)F)CC3CCCCN3)cc(O)c3c(=O)cc(-c4ccccc4Cl)oc23)[C@H](O)C1 (stereo partly shown) [Example 14] : Residual rate at minimum 6%?
Response: NO

Query: Evaluate CN1CC[C@H](c2c(OC(=O)N(CCF)CC3CCCCN3)cc(O)c3c(=O)cc(-c4ccccc4Cl)oc23)[C@H](O)C1 (stereo partly shown) [Example 11] : Residual rate at minimum 6%?
Response: YES

Query: Evaluate CCCN(C[C@H]1CCCCN1)C(=O)Oc1cc(O)c2c(=O)cc(-c3ccccc3Cl)oc2c1[C@H]1CCN(C)C[C@H]1O [Example 6] : Residual rate at minimum 6%?
Response: NO

Query: Evaluate CN1CC[C@H](c2c(OC(=O)N(CCC(F)(F)F)CC3CCCCN3)cc(O)c3c(=O)cc(-c4ccccc4Cl)oc23)[C@H](O)C1 (stereo partly shown) [Example 13] : Residual rate at minimum 6%?
Response: NO

---

experiment_description: Stability evaluation of solution formulation (Experimental Example 2)
Assay type: physicochemical
assay_conditions: solution formulation, pH5.0, 2 week
For each record, write down the corresponding Residual rate.
Number first, unit second.

Query: # return recorded Residual rate for input CN1CC[C@H](c2c(OC(=O)N(C)CCN)cc(O)c3c(=O)cc(-c4ccccc4Cl)oc23)[C@H](O)C1 [Comparative Example 13, reference compound]
Response: 71.7%

Query: # return recorded Residual rate for input CCCN(C[C@H]1CCCCN1)C(=O)Oc1cc(O)c2c(=O)cc(-c3ccccc3Cl)oc2c1[C@H]1CCN(C)C[C@H]1O
Response: 95.3%

Query: # return recorded Residual rate for input CCCN(C[C@@H]1CCCCN1)C(=O)Oc1cc(O)c2c(=O)cc(-c3ccccc3Cl)oc2c1[C@H]1CCN(C)C[C@H]1O
Response: 96.6%

Query: # return recorded Residual rate for input CNCCN(C)C(=O)Oc1cc(O)c2c(=O)cc(-c3ccccc3Cl)oc2c1[C@H]1CCN(C)C[C@H]1O [Comparative Example 14, reference compound]
Response: 8.1%

Query: # return recorded Residual rate for input CCN(C[C@H]1CCCCN1)C(=O)Oc1cc(O)c2c(=O)cc(-c3ccccc3Cl)oc2c1[C@H]1CCN(C)C[C@H]1O
Response: 94.5%

---

experiment_description: Evaluation of conversion rate to active form in buffer solution (Experimental Example 1)
Assay type: physicochemical
assay_conditions: pH6.5, 0 hr, 37° C., 25 umol/L in buffer solution
For each record, write down the corresponding Production rate of Alvocidib.
The response must be a number in % with no trailing unit.

Query: # return recorded Production rate of Alvocidib for input CN1CC[C@H](c2c(OC(=O)N(C)C[C@H]3CCCCN3)cc(O)c3c(=O)cc(-c4ccccc4Cl)oc23)[C@H](O)C1 [Example 4]
Response: 0.5

Query: # return recorded Production rate of Alvocidib for input CN1CC[C@H](c2c(OC(=O)N(CCCC(F)(F)F)CC3CCCCN3)cc(O)c3c(=O)cc(-c4ccccc4Cl)oc23)[C@H](O)C1 (some centres unmarked) [Example 14]
Response: 31.6

Query: # return recorded Production rate of Alvocidib for input CCCN(C[C@@H]1CCCCN1)C(=O)Oc1cc(O)c2c(=O)cc(-c3ccccc3Cl)oc2c1[C@H]1CCN(C)C[C@H]1O [Example 5]
Response: 0.0

Query: # return recorded Production rate of Alvocidib for input CN1CC[C@H](c2c(OC(=O)N(C)CC3CCCCN3)cc(O)c3c(=O)cc(-c4ccccc4Cl)oc23)[C@H](O)C1 (some centres unmarked) [Example 8]
Response: 1.5

Query: # return recorded Production rate of Alvocidib for input CCCN(C[C@H]1CCCCN1)C(=O)Oc1cc(O)c2c(=O)cc(-c3ccccc3Cl)oc2c1[C@H]1CCN(C)C[C@H]1O [Example 6]
Response: 0.6

---

For each record, write down the corresponding Encapsulated compound content per 50 μmol of lipid.
experiment_description: Liposome encapsulation test, remote loading method (Experimental Example 4)
Type: physicochemical
assay_conditions: Compound concentration when encapsulated 10 mg/mL
The response must be a number in mg with no trailing unit.

Query: # return recorded Encapsulated compound content per 50 μmol of lipid for input CCCN(C[C@@H]1CCCCN1)C(=O)Oc1cc(O)c2c(=O)cc(-c3ccccc3Cl)oc2c1[C@H]1CCN(C)C[C@H]1O
Response: 7.2

Query: # return recorded Encapsulated compound content per 50 μmol of lipid for input CCCN(CC1CCCCN1)C(=O)Oc1cc(O)c2c(=O)cc(-c3ccccc3Cl)oc2c1[C@H]1CCN(C)C[C@H]1O (stereo partly drawn)
Response: 7.2

Query: # return recorded Encapsulated compound content per 50 μmol of lipid for input CCN(C[C@H]1CCCCN1)C(=O)Oc1cc(O)c2c(=O)cc(-c3ccccc3Cl)oc2c1[C@H]1CCN(C)C[C@H]1O
Response: 7.1
